- System: Human RSV-A (“Long” strain)
- Assay explanation: RSV in vitro cytoprotection assay (CPE, ATPlite) in HEp-2 cells
- Assay type: cell-based
- Setup conditions: human respiratory syncytial virus, 96 h; HEp-2 cells, 4-day incubation, ATPlite readout; read-out: Human RSV-A (“Long” strain) EC50
Collected EC50 values appear next to each entry.
Parameter measured: EC50

- O=C(Nc1c(F)cccc1F)c1cc2c(s1)-c1ccc(F)cc1N(C(=O)c1ccc(NC(=O)c3cccnc3N3CC4(CCOCC4)C3)cc1)CC2: < 10 nM
- O=C(Nc1c(F)cccc1F)c1cc2c(o1)-c1ccc(F)cc1N(C(=O)c1ccc(NC(=O)c3cc4c(nc3N3CC5(CCOCC5)C3)CCCC4)cc1)CC2: < 10 nM
- Cc1ccc(C(=O)Nc2ccc(C(=O)N3CCc4cc(C(=O)Nc5c(C)cccc5F)sc4-c4ccc(F)cc43)cc2)c(N2CC3(CCOCC3)C2)n1: < 10 nM

---

- Tested on: Human RSV-A (“Long” strain)
- Assay explanation: RSV in vitro cytoprotection assay (CPE, ATPlite) in HEp-2 cells
- Format: cell-based
- Setup conditions: human respiratory syncytial virus, 96 h; HEp-2 cells, 4-day incubation, ATPlite readout; read-out: Human RSV-A (“Long” strain) EC50
Parameter measured: EC50

- Cc1cnc(N2CC3(CCOCC3)C2)c(C(=O)Nc2ccc(C(=O)N3CCc4c(sc(-c5nc6ccccc6[nH]5)c4Cl)-c4ccccc43)cc2)c1: < 0.01 µM
- Cc1cnc(N2CC3(CCOCC3)C2)c(C(=O)Nc2ccc(C(=O)N3CCc4c(sc(C(=O)Nc5c(F)cccc5F)c4F)-c4ccccc43)cc2)c1: < 0.01 µM
- Cc1cnc(N2CC3(CCOCC3)C2)c(C(=O)Nc2ccc(C(=O)N3CCc4c(sc(-c5nc6ccc(F)cc6[nH]5)c4F)-c4ccccc43)cc2)c1: < 0.01 µM
- O=C(Nc1c(F)cccc1Cl)c1cc2c(s1)-c1cc(F)c(F)cc1N(C(=O)c1ccc(NC(=O)c3cc(F)cnc3N3CC4(CCOCC4)C3)cc1)CC2: 0.01 to 0.05 µM
- O=C(Nc1c(F)cccc1F)c1cc2c(s1)-c1ccc(F)cc1N(C(=O)c1ccc(NC(=O)c3cccnc3N3C[C@@H]4C[C@H]3CO4)cc1)CC2: 0.01 to 0.05 µM
- Cc1cnc(N2CC3(CCOCC3)C2)c(C(=O)Nc2ccc(C(=O)N3CCc4cc(-c5nnn[nH]5)sc4-c4ccc(F)cc43)cc2)c1: > 0.05 µM
- Cc1cnc(NC(=O)c2sc3c(c2F)CCN(C(=O)c2ccc(NC(=O)c4cc(C)cnc4N4CC5(CCOCC5)C4)cc2)c2ccccc2-3)c(F)c1: < 0.01 µM
- Cc1cnc(N2CC3(CCOCC3)C2)c(C(=O)Nc2ccc(C(=O)N3CCc4c(sc(-c5nc6cccc(F)c6[nH]5)c4F)-c4ccccc43)cc2)c1: < 0.01 µM
- Cc1cnc(N2CC3(CCOCC3)C2)c(C(=O)Nc2ccc(C(=O)N3CCc4cc(-c5ncccn5)sc4-c4ccc(F)cc43)cc2)c1: 0.01 to 0.05 µM
- Cc1cnc(N2CC3(CCOCC3)C2)c(C(=O)Nc2ccc(C(=O)N3CCc4cc(NC(=O)OC5CCCCC5)sc4-c4ccccc43)cc2)c1: 0.01 to 0.05 µM
- Cc1cc(CNc2ncccc2C(=O)Nc2ccc(C(=O)N3CCc4cc(C(=O)Nc5c(F)cccc5F)sc4-c4ccc(F)cc43)cc2)on1: > 0.05 µM
- Cc1cnc(N2CC3(CCOCC3)C2)c(C(=O)Nc2ccc(C(=O)N3CCc4cc(C(=O)Nc5c(F)cccc5F)oc4-c4ccc(F)cc43)cc2)c1: < 0.01 µM

---

- System: Human RSV-A (“Long” strain)
- Assay explanation: RSV in vitro cytoprotection assay (CPE, ATPlite) in HEp-2 cells
- Type: cell-based
- Setup conditions: human respiratory syncytial virus, 96 h; HEp-2 cells, 4-day incubation, ATPlite readout; read-out: Human RSV-A (“Long” strain) EC50
- Experimental: RSV is a single stranded negative sense RNA virus that causes respiratory tract infections which can be dangerous to infants, the elderly, and immunosuppressed individuals. Currently there is no vaccine, and therapeutic options are both costly and of limited effectiveness. These approved treatments are Ribavirin, and Palivizumab/Synagis (a monoclonal antibody). […] Cell viability is measured several days later along with separate measurements of compound cytotoxicity. […]
# Lookup of reported EC50 keyed by entry
Parameter measured: EC50

• Cc1ccc(C(=O)Nc2ccc(C(=O)N3CCc4cc(C(=O)Nc5c(F)cccc5C(F)(F)F)sc4-c4ccc(F)cc43)cc2)c(N2CC3(CCOCC3)C2)n1 = < 10 nM
• Cc1ccc(C(=O)Nc2ccc(C(=O)N3CCc4cc(NC(=O)c5ncccc5F)sc4-c4ccccc43)cc2)c(N2CC3(CCOCC3)C2)n1 = < 10 nM
• O=C(Nc1ccc(C(=O)N2CCc3c(sc(C(=O)Nc4c(Cl)cccc4Cl)c3F)-c3ccccc32)cc1)c1cccnc1N1CC2(CCOCC2)C1 = 10 to 50 nM
• Cc1cnc(N2CC3(CCOCC3)C2)c(C(=O)Nc2ccc(C(=O)N3CCc4cc(-c5c[nH]c6cccnc56)sc4-c4ccc(F)cc43)cc2)c1 = 10 to 50 nM
• O=C(Nc1c(F)cc(F)cc1F)c1cc2c(s1)-c1ccc(F)cc1N(C(=O)c1ccc(NC(=O)c3cc(F)cnc3N3CC4(CCOCC4)C3)cc1)CC2 = > 50 nM
• Cc1cnc(N2CC3(CCOCC3)C2)c(C(=O)Nc2ccc(C(=O)N3CCc4cc(NC(=O)OC5CCCC5)sc4-c4ccccc43)cc2)c1 = 10 to 50 nM

---

- Test system: Human RSV-A (“Long” strain)
- Assay explanation: RSV in vitro cytoprotection assay (CPE, ATPlite) in HEp-2 cells
- Format: cell-based
- Setup conditions: human respiratory syncytial virus, 96 h; HEp-2 cells, 4-day incubation, ATPlite readout; read-out: Human RSV-A (“Long” strain) EC50
Parameter measured: EC50

• Cc1cnc(N2CC3(CCOCC3)C2)c(C(=O)Nc2ccc(C(=O)N3CCc4cc(C(=O)Nc5ncco5)sc4-c4ccc(F)cc43)cc2)c1 [Example 125] = 10 to 50 nM
• O=C(Nc1ccc(C(=O)N2CCc3cc(-c4nc5ccccc5[nH]4)sc3-c3ccc(Cl)cc32)cc1)c1cccnc1N1CC2(CCOCC2)C1 [Example 82] = 10 to 50 nM
• O=C(Nc1c(F)cccc1F)c1cc2c(s1)-c1ccc(F)cc1N(C(=O)c1ccc(NC(=O)c3cc(C(F)F)cnc3N3CC4(CCOCC4)C3)cc1)CC2 [Example 146] = 10 to 50 nM
• Cc1ccc(C(=O)Nc2ccc(C(=O)N3CCc4cc(C(=O)Nc5c(F)cc(F)cc5F)sc4-c4ccc(F)cc43)cc2)c(N2CC3(CCOCC3)C2)n1 [Example 111] = < 10 nM
• Cc1cnc(N2CC3(CCOCC3)C2)c(C(=O)Nc2ccc(C(=O)N3CCc4c(sc(C(=O)Nc5cccc(F)c5)c4F)-c4ccccc43)cc2)c1 [Example 210] = < 10 nM
• O=C(Nc1c(F)cc(F)cc1Cl)c1cc2c(s1)-c1ccc(F)cc1N(C(=O)c1ccc(NC(=O)c3ccc(C(F)(F)F)nc3N3CC4(CCOCC4)C3)cc1)CC2 [Example 23] = 10 to 50 nM

---

# EC50 per entry
- System: Human RSV-A (“Long” strain)
- Assay explanation: RSV in vitro cytoprotection assay (CPE, ATPlite) in HEp-2 cells
- Type: cell-based
- Setup conditions: human respiratory syncytial virus, 96 h; HEp-2 cells, 4-day incubation, ATPlite readout; read-out: Human RSV-A (“Long” strain) EC50
Parameter measured: EC50

* Cc1cnc(N2CC3(CCOCC3)C2)c(C(=O)Nc2ccc(C(=O)N3CCc4c(sc(C(=O)Nc5ccccc5F)c4F)-c4ccccc43)cc2)c1 | < 10 nM
* O=C(Nc1c(F)cccc1Cl)c1cc2c(o1)-c1ccc(F)cc1N(C(=O)c1ccc(NC(=O)c3cc4c(nc3N3CC5(CCOCC5)C3)CCC4)cc1)CC2 | < 10 nM
* Cc1cnc(N2CC3(CCOCC3)C2)c(C(=O)Nc2ccc(C(=O)N3CCc4c(sc(C(=O)Nc5cccc(C)n5)c4F)-c4ccccc43)cc2)c1 | 10 to 50 nM

---

- Tested on: Human RSV-A (“Long” strain)
- Assay explanation: RSV in vitro cytoprotection assay (CPE, ATPlite) in HEp-2 cells
- Type: cell-based
- Setup conditions: human respiratory syncytial virus, HEp-2, 96 h, read-out: Human RSV-A (“Long” strain) EC50
Parameter measured: EC50

* Cc1ccc(C(=O)Nc2ccc(C(=O)N3CCc4cc(NC(=O)Oc5ccccc5)sc4-c4ccccc43)cc2)c(N2CC3(CCOCC3)C2)n1 | > 50 nM

---

pEC50 overview
- Test system: Human RSV-A (“Long” strain)
- Assay explanation: RSV in vitro cytoprotection assay (CPE, ATPlite) in HEp-2 cells
- Assay type: cell-based
- Setup conditions: human respiratory syncytial virus, 96 h; HEp-2 cells, 4-day incubation, ATPlite readout; read-out: Human RSV-A (“Long” strain) EC50
pEC50: −log10 of the molar value.
Parameter measured: pEC50

* Cc1cnc(N2CC3(CCOCC3)C2)c(C(=O)Nc2ccc(C(=O)N3CCc4c(sc(C(=O)Nc5ncc(F)s5)c4F)-c4ccccc43)cc2)c1 | 7.30 to 8.00
* Cc1cnc(N2CC3(CCOCC3)C2)c(C(=O)Nc2ccc(C(=O)N3CCc4c(sc(C(=O)Nc5c(F)cccc5F)c4C)-c4ccccc43)cc2)c1 | > 8.00
* Cc1ccc(C(=O)Nc2ccc(C(=O)N3CCc4cc(C(=O)Nc5c(C)cccc5C)sc4-c4ccc(F)cc43)cc2)c(N2CC3(CCOCC3)C2)n1 | > 8.00
* Cc1cnc(N2CC3(CCOCC3)C2)c(C(=O)Nc2ccc(C(=O)N3CCc4cc(-c5nnnn5C)sc4-c4ccc(F)cc43)cc2)c1 | 7.30 to 8.00
* O=C(Nc1c(F)cccc1F)c1cc2c(s1)-c1cc(C(F)(F)F)ccc1N(C(=O)c1ccc(NC(=O)c3cccnc3N3CC4(CCOCC4)C3)cc1)CC2 | 7.30 to 8.00
* Cc1ccc(C(=O)Nc2ccc(C(=O)N3CCc4cc(C(=O)Nc5ccccc5F)sc4-c4ccc(F)cc43)cc2)c(N2CC3(CCOCC3)C2)n1 | > 8.00
* Cc1cnc(N2CC3(CCOCC3)C2)c(C(=O)Nc2ccc(C(=O)N3CCc4c(sc(C(=O)Nc5ncccc5F)c4F)-c4ccccc43)cc2)c1 | > 8.00
* Cc1ccnc(NC(=O)c2sc3c(c2F)CCN(C(=O)c2ccc(NC(=O)c4cc(C)cnc4N4CC5(CCOCC5)C4)cc2)c2ccccc2-3)c1 | 7.30 to 8.00
* Cc1cnc(N2CC3(CCOCC3)C2)c(C(=O)Nc2ccc(C(=O)N3CCc4cc(NC(=O)c5ncccc5F)sc4-c4ccccc43)cc2)c1 | > 8.00
* Cc1cnc(N2CC3(CCOCC3)C2)c(C(=O)Nc2ccc(C(=O)N3CCc4cc(C(=O)Nc5c(Cl)cccc5Cl)sc4-c4ccc(F)cc43)cc2)c1 | > 8.00
* Cc1cnc(N2CC3(CCOCC3)C2)c(C(=O)Nc2ccc(C(=O)N3CCc4cc(-c5ccnnc5)sc4-c4ccc(F)cc43)cc2)c1 | > 8.00
* Cc1cnc(N2CC3(CCOCC3)C2)c(C(=O)Nc2ccc(C(=O)N3CCc4cc(-c5cccnc5F)sc4-c4ccc(F)cc43)cc2)c1 | > 8.00
* Cc1ccc(C(=O)Nc2ccc(C(=O)N3CCc4c(sc(NC(=O)c5c(F)cccc5Cl)c4F)-c4ccccc43)cc2)c(N2CC3(CCOCC3)C2)n1 | 7.30 to 8.00
* O=C(Nc1ccc(C(=O)N2CCc3cc(-c4nc5ccc(F)cc5[nH]4)sc3-c3ccc(F)cc32)cc1)c1cccnc1N1CC2(CCOCC2)C1 | 7.30 to 8.00
* Cc1cnc(N2CC3(CCOCC3)C2)c(C(=O)Nc2ccc(C(=O)N3CCc4cc(NC(=O)OCC(F)(F)F)sc4-c4ccccc43)cc2)c1 | > 8.00
* O=C(Nc1ccc(C(=O)N2CCc3cc(-c4nc5ccccc5[nH]4)oc3-c3ccc(F)cc32)cc1)c1cc2c(nc1N1CC3(CCOCC3)C1)CCCC2 | 7.30 to 8.00
* Cc1cnc(N2CC3(CCOCC3)C2)c(C(=O)Nc2ccc(C(=O)N3CCc4cc(C(=O)Nc5c(F)cc(F)cc5F)sc4-c4ccc(F)cc43)cc2)c1 | > 8.00
* Cc1ccc(C(=O)Nc2ccc(C(=O)N3CCc4cc(C(=O)Nc5ccccc5F)oc4-c4ccccc43)cc2)c(N2CC3(CCOCC3)C2)n1 | > 8.00
* Cc1ccc(C(=O)Nc2ccc(C(=O)N3CCc4sc(-c5nc6ccccc6[nH]5)cc4-c4ccccc43)cc2)c(N2CC3(CCOCC3)C2)n1 | > 8.00
* Cc1cnc(N2CC3(CCOCC3)C2)c(C(=O)Nc2ccc(C(=O)N3CCc4cc(C(=O)Nc5c(C)cccc5F)sc4-c4ccc(F)cc43)cc2)c1 | > 8.00
* CCS(=O)(=O)CCN(C)c1ncccc1C(=O)Nc1ccc(C(=O)N2CCc3cc(C(=O)Nc4c(F)cccc4F)sc3-c3ccc(F)cc32)cc1 | < 7.30
* Cc1cccc(F)c1NC(=O)c1sc2c(c1F)CCN(C(=O)c1ccc(NC(=O)c3cccnc3N3CC4(CCOCC4)C3)cc1)c1ccccc1-2 | > 8.00
* O=C(Nc1c(F)cccc1F)c1cc2c(s1)-c1cc(F)c(F)cc1N(C(=O)c1ccc(NC(=O)c3cccnc3N3CC4(CCOCC4)C3)cc1)CC2 | > 8.00
* O=C(Nc1ccc(C(=O)N2CCc3cc(-c4nc5ccccc5[nH]4)oc3-c3ccccc32)cc1)c1cc2c(nc1N1CC3(CCOCC3)C1)CCC2 | > 8.00
